- TEST_SYSTEM: Concanavalin-A (Canavalia ensiformis) (UniProt P02866)
- Sequence (P02866 whole entry, looked up): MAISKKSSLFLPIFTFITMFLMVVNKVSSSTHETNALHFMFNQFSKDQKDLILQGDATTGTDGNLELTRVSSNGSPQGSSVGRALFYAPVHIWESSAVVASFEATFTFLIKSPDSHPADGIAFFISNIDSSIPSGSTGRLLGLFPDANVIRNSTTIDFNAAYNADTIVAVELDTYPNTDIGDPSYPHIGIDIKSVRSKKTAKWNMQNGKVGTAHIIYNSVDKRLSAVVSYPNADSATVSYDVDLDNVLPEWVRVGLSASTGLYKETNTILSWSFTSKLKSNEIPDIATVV
- EXPERIMENTAL_PROTOCOL: compounds binding concanavalin A lectin – biochemical, small-molecule microarray, Alexa647 label, 635 nm, artefact control for SMM control protein annotation, primary screen (AID 1127);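 further: z combines 667 nm emission intensity with signal-to-noise across three replicate slides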
- CONDITION_SUMMARY: ConA-A647 binding fluorescence, higher = more signal
Recorded composite z-score values for a group of compounds are listed next.

As a guide, the following entries are already answered.
COMPOUND	composite z-score
COc1ccc([Si](C)(C)[C@@H]2[C@@H](CC(=O)N(CCO)Cc3ccccc3)O[C@]3(C(=O)N(Cc4cccc(N5CCCCC5=O)c4)c4ccccc43)[C@H]2C)cc1	1.03
[N-]=[N+]=Nc1ccccc1C[C@]1(C(=O)NCC(O)CO)COC(c2ccc(OCCCO)cc2)=N1 (stereo partly drawn)	0.832
COc1ccc(C#Cc2ccc3c(c2)[C@]2(C(=O)N3)[C@H](c3ccc(O)cc3)N3[C@H](c4ccccc4)[C@H](c4ccccc4)OC(=O)[C@H]3[C@@H]2C(=O)Nc2nc3ccccc3s2)cc1	1.08
CCCCCCCCCC(O)C1C=CC2C(=O)N(c3ccccc3)C(=O)C2N1Nc1cc(OC)c(OC)c(OC)c1 (stereo not drawn)	0.932

The recorded composite z-score for O=C(c1ccccc1)N1C(=O)[C@]2(Cc3ccccc31)N=C(c1ccc(OCCCO)cc1)O[C@@H]2c1ccccc1 is 1.13

The recorded composite z-score for CC(C)C[C@@H]1NC(=O)[C@@H]2C[C@H](C(=O)NCCCCCCN)[C@H](c3cccc(OCCO)c3)N2C1=O is 1.03

The recorded composite z-score for CCCCC(CC)C(O)C1C=CC2C(=O)N(c3ccccc3)C(=O)C2N1Nc1ccc(C#N)cc1 (stereo not drawn) is 1.2

The recorded composite z-score for C=CCNC(=O)[C@@H]1[C@H]2C(=O)O[C@H](c3ccccc3)[C@H](c3ccccc3)N2[C@H](c2ccccc2OCCO)[C@@]12C(=O)N(C(=O)OCCOC)c1ccc(C#CC3(O)CCCCCC3)cc12 is 1.07

---

- EXPERIMENTAL_PROTOCOL: viability profiling in MM1S myeloma cells – cell-based, resazurin fluorescence, basal, 24 h, PK04 Diversity Set, profiling panel (AID 1174);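 further: MM1S multiple myeloma cell line; test concentration not given here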
- CONDITION_SUMMARY: higher = more signal, called active from +8 up or from −8 down
Recorded z-score values for a group of compounds are listed next.
The answer should be written as a number, with no unit following it.

COMPOUND	VAL
COC(=O)[C@@]1(Cc2ccc(OC)cc2)[C@H]2c3cc(C(=O)N4CCCC4)n(CCc4c[nH]c5ccc(O)cc45)c3C[C@H]2CN1C(=O)c1ccccc1	-0.56
C=CC[C@@]1(C(=O)NCCCOC)N=C(c2ccc(OCCCO)cc2)O[C@@H]1c1ccccc1	-0.203
COC(=O)C/C=C/C[C@]1(O)C(=O)N(C)c2ccccc21	0.913
CC(C)C[C@@H]1NC(=O)[C@@H]2C[C@H](C(=O)NCCCCCCN)[C@H](c3cccc(OCCO)c3)N2C1=O	0.542
CCOc1cc(C(O)C2C=CC3C(=O)NC(=O)C3N2Nc2ccc(Cl)cc2Cl)ccc1O (centres undefined)	-2.35

The recorded z-score for C=CCC(OC(C)=O)[C@@H]1[C@@H](N(Cc2ccc(-c3cccc(C(F)(F)F)c3)o2)C(=O)c2ccc(-c3ccccc3)cc2)c2cc(OCCCO)ccc2N1C(=O)Cc1ccc2ccccc2c1 (some centres undefined) is -0.115

---

- EXPERIMENTAL_PROTOCOL: forskolin-driven CRE-LacZ activity in PC12 – cell-based, CRE-LacZ reporter, forskolin-stimulated, primary screen (AID 1146);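 further: PC12 cells with 6xCRE LacZ reporter stimulated by forskolin 10 µM; beta-galactosidase reporter signal reflecting CREB driven transcription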
- CONDITION_SUMMARY: luminescence, 4.5 h, called active from +8 up or from −8 down
The source made the active and inactive calls.
Could you please pick one outcome from this set? active, inactive

Sample answers from the record:
                                   compound  classification
0  O=C1N(CCS(=O)(=O)c2ccccc2)c2ccccc2[C@H]2OC(c3ccc(OCCCO)cc3)=N[C@@]12Cc1ccccc1        inactive
1  Cc1ccccc1C(O)C1C=CC2C(=O)NC(=O)C2N1Nc1ccccn1 (stereo not drawn)        inactive
2  CC(C)C(CO)N1C(=O)[C@@H]2[C@H]3C(=O)OCC=C[C@H]3OC23C=CCN(c2ccc(Cl)cc2)C(=O)[C@@H]13 (stereo partly drawn)        inactive
3  CCCC[C@@H](O)C1=C(COC)C[C@H]2C(=O)N(Cc3ccccc3)C(=O)[C@H]2[C@H]1CO        inactive
4  C#CCN(Cc1ccccc1Br)[C@H](/C=C/c1ccccc1)[C@@H](O)Cc1ccccc1        inactive

Now for another entry.
Request: In this assay, the call recorded for CCOC(=O)C[C@H]1[C@H](OC(=O)c2ccccc2-c2ccccc2)[C@@H](NC(=O)c2ccc3ccccc3c2)c2cc(OCCCO)ccc2N1C(=O)c1ccccc1 was what?
Result: inactive

---

- TEST_SYSTEM: Torsin-1A (Homo sapiens) (UniProt O14656)
- Sequence (O14656 whole entry, looked up): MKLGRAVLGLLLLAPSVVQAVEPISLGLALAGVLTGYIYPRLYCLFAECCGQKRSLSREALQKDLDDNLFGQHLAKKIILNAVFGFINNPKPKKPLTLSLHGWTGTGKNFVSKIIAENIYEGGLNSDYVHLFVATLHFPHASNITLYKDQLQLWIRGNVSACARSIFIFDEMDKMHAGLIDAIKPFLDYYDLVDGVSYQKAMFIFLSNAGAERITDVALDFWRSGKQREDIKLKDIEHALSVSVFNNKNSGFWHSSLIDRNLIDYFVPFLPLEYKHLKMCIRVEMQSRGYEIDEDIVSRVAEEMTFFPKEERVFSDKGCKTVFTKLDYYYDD
- EXPERIMENTAL_PROTOCOL: torsin A mutant lysate binding on microarrays – cell lysate, small-molecule microarray, COS7 lysate, 635/667 nm fluorescence, primary screen (AID 1150);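 further: score pools 667 nm emission and signal to noise measuring lysate protein binding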
- CONDITION_SUMMARY: COS7 hTOR1A mutant lysate, 635 nm fluorescence, higher = more signal
Mark no (0) for composite z-score values under 0.3, and yes (1) for everything at or above.

Request: Does CC(C)[Si](C#C[Si](C(C)C)(C(C)C)C(C)C)(O[C@H](c1ccccc1)c1cn(Cc2ccccc2)nn1)C(C)C have a reported composite z-score of at least 0.3?
Result: no (0)

---

Recorded z-score values for a group of compounds are listed next.
- EXPERIMENTAL_PROTOCOL: FRG1 expression reporter modulators in myotubes – cell-based, C2C12 myotubes, firefly/Renilla luciferase, luminescence, FRG1 inhibition for FSHD, primary screen (AID 1084)
- CONDITION_SUMMARY: FRG1 promoter luciferase, higher = more signal, called active from +8 up or from −8 down
The answer should be written as a number, with no unit following it.

COMPOUND	z-score
CCCC=C(CCC)[C@@H](NC(=O)C(C)(C)C)c1ccc(C(=O)OC)cc1	-4.15
NCCCCCCNC(=O)[C@@H]1C[C@@H]2C(=O)N[C@@H](CCCCN)C(=O)N2[C@@H]1c1ccc(O)cc1	0.598
CN(C)C(=O)[C@]1(CCC(=O)OC(C)(C)C)N=C(c2ccc(OCCCO)cc2)O[C@@H]1c1ccccc1CN=[N+]=[N-]	3.58

The recorded z-score for O=C1C2C=CC(C(O)C3CC=CCC3)N(Nc3ccccc3)C2C(=O)N1c1ccccc1 (stereo not given) is -1.16

The recorded z-score for C=CCC(OC(C)=O)[C@@H]1[C@@H](N(Cc2ccc(-c3ccccc3)cc2)C(=O)c2ccc(-c3ccccc3)cc2)c2cc(OCCCO)ccc2N1C(=O)c1ccc2ccccc2c1 (stereo not given in full) is 0.807

The recorded z-score for CC(C)C(CO)N1C(=O)[C@@H]2[C@H]3C(=O)OCC=C[C@H]3OC23C=CCN(c2ccc(Cl)cc2)C(=O)[C@@H]13 (stereo not given in full) is -0.459

The recorded z-score for O=C(NCc1ccc(F)cc1)[C@H]1C[C@H]2C(=O)NCC(=O)N2[C@H]1c1ccc(O)cc1 is -0.428

---

Recorded composite z-score values for a group of compounds are listed next.
- EXPERIMENTAL_PROTOCOL: compounds binding Alexa647 anti-His antibody – biochemical, small-molecule microarray, 635 nm fluorescence, artefact control for SMM control protein annotation, primary screen (AID 1128);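 further: score merges feature fluorescence with signal-to-noise for each printed compound spot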
- CONDITION_SUMMARY: higher = more signal
The answer should be written as a number, with no unit following it.

COMPOUND	VAL
COc1cc(NN2C(C(O)c3cc(OC)c(OC)c(OC)c3)C=CC3C(=O)N(C)C(=O)C32)cc(OC)c1OC (centres undefined)	0.661
CCCCC(=C=CC[C@H](O)c1ccc(OCCO)cc1)CCO	-0.582
CCOC(=O)C[C@H]1[C@H](OC(=O)Cc2ccc3c(c2)OCO3)[C@@H](NC(=O)c2ccc3ccccc3n2)c2cc(OCCCO)ccc2N1C(=O)c1ccc2ccccc2n1	0.267
C=CCNC(=O)[C@@H]1[C@H]2C(=O)O[C@H](c3ccccc3)[C@H](c3ccccc3)N2[C@H](c2ccccc2OCCO)[C@@]12C(=O)N(C(=O)OCCOC)c1ccc(C#CC3(O)CCCCCC3)cc12	0.713
C=CCC(OC(C)=O)[C@@H]1[C@@H](N(Cc2ccc(-c3cccc(C(F)(F)F)c3)o2)C(=O)Cc2ccc(OC)cc2)c2cc(OCCCO)ccc2N1C(=O)c1ccc(-c2ccccc2)cc1 (some centres undefined)	-0.0127
CC(C)N1CC=CC23O[C@@H]4C=CCCOC(=O)C4[C@H]2C(=O)N(CCCO)[C@@H]3C1=O (some centres undefined)	0.939
CC(=O)NCCCC[C@@H]1NC(=O)[C@@H]2C[C@H](C(=O)NCCCCCN)[C@H](c3cccc(OCCO)c3)N2C1=O	0.586
CCCC[C@@H](O)C1=C(COc2ccccc2)C[C@H]2C(=O)N(Cc3ccccc3)C(=O)[C@H]2[C@H]1CO	-0.412

Proceeding to the next compound to report its composite z-score.
The recorded composite z-score for NC(=O)NCC#Cc1ccc2c(c1)[C@]1(C(=O)N2)[C@H](c2ccccc2OCCO)N2[C@H](c3ccccc3)[C@H](c3ccccc3)OC(=O)[C@H]2[C@@H]1C(=O)NC[C@H](O)c1ccccc1 is 1.1
